System: U251 CNS
Experiment: NCI tumour cell line growth inhibition, 48 h
Measured parameter: TGI (µM)
Return type: number; implicit unit µM.

Solved entries (count: 6):
[
  {
    "Molecule": "Oc1c(CN2CCN(c3ccccc3)CC2)cc(Br)c2cccnc12",
    "Number": 7.87
  },
  {
    "Molecule": "C=CC(COC(c1ccccc1)(c1ccccc1)c1ccccc1)N(CC)CC (stereo unspecified)",
    "Number": 12
  },
  {
    "Molecule": "O=NN(CCCl)C(=O)NC1CCC(CC2CCC(NC(=O)N(CCCl)N=O)CC2)CC1 (stereo unspecified)",
    "Number": 46.2
  },
  {
    "Molecule": "CCN(CC)c1ccc(/C=C/C=C2\\NC(=O)NC2=O)cc1",
    "Number": 17.9
  },
  {
    "Molecule": "Oc1ccc(Cc2cc(Cl)cc(Cl)c2O)cc1Cl",
    "Number": 36.2
  },
  {
    "Molecule": "O=C1C(Cl)=C(Nc2cccc(O)c2)C(=O)N1Cc1ccc(Cl)cc1Cl",
    "Number": 15.5
  }
]

Problem: Please give the measured TGI for this molecule: OCCN1CCN(CC/C=C2/c3ccccc3Sc3ccc(Cl)cc32)CC1
Result: 25.6

Problem: Note, next up: COc1ccc(C(=O)/C=C/c2cc(O)c(O)cc2F)c(OC)c1
Result: 20.9

* * *

System: MOLT-4 leukemia
Test: NCI tumour cell line growth inhibition, 48 h
Quick reference: TGI of the listed items.

Solved entries (count: 5):
[
  {
    "Compound": "OC1C[C@H](c2ccccc2)C2(C(O)c3ccccc3C2O)[C@@H](c2ccccc2)C1 (stereo partly specified)",
    "TGI": "> 100 µM"
  },
  {
    "Compound": "Cc1ccc(-c2cc(O)c(-c3ccc(C)cc3C)cc2O)c(C)c1",
    "TGI": "> 100 µM"
  },
  {
    "Compound": "CC1=NN(c2nc(N)nc(/C=C\\c3ccc([N+](=O)[O-])s3)n2)C(C)(C)C1",
    "TGI": "> 100 µM"
  },
  {
    "Compound": "COc1cc(CS(=O)c2ccc(O)cc2)cc(OC)c1OC (stereo unspecified)",
    "TGI": "> 100 µM"
  },
  {
    "Compound": "COc1ccc(Nc2nc(N)c(C(=O)c3cccs3)s2)cc1",
    "TGI": "17.2 µM"
  }
]

Okay, now this compound:
Problem: Please give the measured TGI for this compound: C/C(=N\NC(=S)N(C)C)c1ccccn1
Result: 2.12 µM

* * *

Test system: UACC-257 melanoma
Test: NCI tumour cell line growth inhibition, 48 h
Measured parameter: TGI (µM)
Return type: number; implicit unit µM.

Solved entries (count: 2):
[
  {
    "Chem smiles": "CN1CCN(C2=CC(=O)c3c(O)ccc(O)c3C2=O)CC1",
    "Measurement units": "µM",
    "TGI": 0.467
  },
  {
    "Chem smiles": "O=C(/C=C\\c1cccc2ccccc12)c1cccc2ccccc12",
    "Measurement units": "µM",
    "TGI": 29.9
  }
]

Problem: Please give the measured TGI for this molecule: CNCCN=c1ccc2c3c1c(O)c1c(O)ccc(=O)c1c3[nH]n2CCNCCO
Result: 7

* * *

Tested on: UO-31 renal
Assay: NCI tumour cell line growth inhibition, 48 h
Mark not met for TGI values under 10 µM, and met for everything at or above.

[
  {
    "Compound": "Cc1ccc(C(=O)CC2=Nc3nnc(CCCCCCCc4nnc5n4C(=O)C(CC(=O)c4ccc(C)cc4)=N5)n3C2=O)cc1",
    "Discrete label": "met"
  },
  {
    "Compound": "CC(=O)c1cc(O)c2ccccc2c1O",
    "Discrete label": "met"
  },
  {
    "Compound": "Oc1c(CN2CCN(c3ccccc3)CC2)cc(Br)c2cccnc12",
    "Discrete label": "met"
  },
  {
    "Compound": "COc1c(B(O)O)cc(F)cc1-c1nc2ccc3[nH]ncc3c2c2c1CCCC2",
    "Discrete label": "not met"
  },
  {
    "Compound": "OC1C[C@H](c2ccccc2)C2(C(O)c3ccccc3C2O)[C@@H](c2ccccc2)C1 (stereo not given in full)",
    "Discrete label": "met"
  },
  {
    "Compound": "CC(C)(C)[Si](C)(C)OCC1OC(n2cnc3c(=O)[nH]c(N)nc32)C(O[Si](C)(C)C(C)(C)C)C1O[Si](C)(C)C(C)(C)C (stereo not given)",
    "Discrete label": "met"
  },
  {
    "Compound": "CC#Cc1nc(Nc2cc(C)[nH]n2)c2ccccc2n1",
    "Discrete label": "met"
  },
  {
    "Compound": "COc1ccc(N2C(=O)C3c4[nH]c5ccccc5c4C4CCCCC4C3C2=O)cc1 (stereo not given)",
    "Discrete label": "met"
  },
  {
    "Compound": "O=C1C(Cl)=C(Nc2cccc(O)c2)C(=O)N1Cc1ccc(Cl)cc1Cl",
    "Discrete label": "met"
  },
  {
    "Compound": "CCCCCCCCCCCCCCCC1=NC(C)(C)CN1C(C)C",
    "Discrete label": "not met"
  }
]

Problem: Check if TGI >= 10 µM (inclusive). Item: O=C(NC(=S)Nc1cc(Cl)ccc1O)c1cccc(Br)c1
Result: met

Problem: Note, next up: O=c1oc2c(C(F)(F)F)cccc2cc1-c1csc(Nc2ccc(OCCF)cc2)n1
Result: met

Problem: Note, next up: COC1OC2=CCC3C(=O)NC(=O)C3C2[C@H](OCc2ccccc2)C1OCc1ccccc1 (stereo not given in full)
Result: met

Problem: Note, next up: C[C@]12CCC(=O)C=C1CC[C@@H]1C2CC[C@]2(C)c3nn(-c4ccccc4)nc3CC12 (stereo not given in full)
Result: met

Problem: Note, next up: Cn1c(O)c(C=Nc2ccccc2Cl)c(=O)n(C)c1=O
Result: met

* * *

System: HL-60(TB) leukemia
Test: NCI tumour cell line growth inhibition, 48 h
Quick reference: TGI of the listed items.

Solved entries (count: 2):
[
  {
    "Compound": "C[C@@H](Nc1nc(Nc2ccc(F)c(Cl)c2)nc2ccccc12)C1CC1",
    "Target desc": "HL-60(TB) leukemia",
    "Measured parameter": "TGI",
    "Result": "6.32 µM"
  },
  {
    "Compound": "CCC[CH2][Sn]1([CH2]CCC)[O]CC(C)[O]1 (centres undefined)",
    "Target desc": "HL-60(TB) leukemia",
    "Measured parameter": "TGI",
    "Result": "2.62 µM"
  }
]

Problem: Please give the measured TGI for this compound: CCOC(=O)[C@@H]1ON2OC(OC3CCCC3(c3ccccc3)c3ccccc3)C(OC(C)=O)[C@H]3OC(=O)[C@@H]1C32 (some centres undefined)
Result: > 100 µM

Problem: Note, next up: CCN(CC)CC(=N)N(CC)c1ccccc1
Result: > 100 µM

* * *

Quick reference: TGI of the listed items.
Tested on: HOP-92 NSCLC
Assay: NCI tumour cell line growth inhibition, 48 h
Return type: number; implicit unit µM.

Solved entries (count: 3):
[
  {
    "Compound": "CCN1CCC(O)(/C=C/c2ccc(OC)cc2)C(C(=O)/C=C/c2ccc(OC)cc2)C1 (centres undefined)",
    "Measured parameter": "TGI",
    "Number": 21.3
  },
  {
    "Compound": "Cc1cccc(Cc2cnc(NC(=O)CCc3ccc(C)o3)s2)c1",
    "Measured parameter": "TGI",
    "Number": 98.7
  },
  {
    "Compound": "O=C(N/N=C/c1cc(Br)cc(Br)c1[O-])c1ccccc1O.O=C(N/N=C/c1cc(Br)cc(Br)c1[O-])c1ccccc1O.[Ni+2]",
    "Measured parameter": "TGI",
    "Number": 2.02
  }
]

Problem: Please give the measured TGI for this compound: O=c1c2ccccc2nc(N/N=C/c2ccccc2O)n1-c1ccccc1
Result: 81.3

Problem: Note, next up: CC(=O)[O-].O=C([CH-]C(=O)c1ccccc1)c1ccccc1.O=C([CH-]C(=O)c1ccccc1)c1ccccc1.[Sm+3]
Result: 19.6

Problem: Note, next up: Cc1cc(C(=O)c2ccccc2)c(C)c2c1[nH]c1ccc(Cl)cc12
Result: 21.2

* * *

Tested on: A549 NSCLC
Test: NCI tumour cell line growth inhibition, 48 h; in the data active means GI50 below about 0.43 µM; inactive means the rest
Hello, when you answer, please use one of the following outcomes: T (active), F (inactive)

[
  {
    "Molecule": "O=C1OCC2=C1C(c1ccccc1)c1cc3c(cc1N2CCO)OCCO3 (stereo not given)",
    "Discrete label": "F"
  },
  {
    "Molecule": "CC(=O)[O-].O=C([CH-]C(=O)c1ccccc1)c1ccccc1.O=C([CH-]C(=O)c1ccccc1)c1ccccc1.[Sm+3]",
    "Discrete label": "F"
  },
  {
    "Molecule": "O=C1C(Cl)=C(Nc2cccc(C(F)(F)F)c2)C(=O)N1Cc1ccc(Cl)cc1",
    "Discrete label": "F"
  }
]

Problem: Would you mind telling me which call this test gave COc1c(B(O)O)cc(F)cc1-c1nc2ccc3[nH]ncc3c2c2c1CCCC2 ?
Result: F

Problem: Note, next up: C=C(C(=O)O[C@H]1C(=O)C2=C(C)CCC3C(=C)C(=O)O[C@@H]3C2[C@]1(C)O)C1CC[C@]2(C)CCCC(=C)[C@H]2C1 (stereo not given in full)
Result: F

Problem: Note, next up: CC1=NN(c2nc(N)nc(/C=C\c3ccc([N+](=O)[O-])s3)n2)C(C)(C)C1
Result: F

Problem: Note, next up: COc1cc(NC(=O)C2=C(N3CCOCC3)/C(=C/c3ccc(Cl)cc3)CC2)cc(OC)c1OC
Result: F

Problem: Note, next up: Oc1ccc(N=Nc2ccccn2)c(O)c1
Result: F

Problem: Note, next up: CC(=O)[CH-]C(C)=O.CC(=O)[CH-]C(C)=O.CC[O-].CC[O-].[Ti+4]
Result: F

Problem: Note, next up: Nc1ncc(-c2cccc(S(N)(=O)=O)c2)c2scc(-c3ccc(F)c(Cl)c3)c12
Result: F

Problem: Note, next up: Nc1c(C(=O)Nc2cccc(Cl)c2Cl)sc2nc3c(cc12)C(=O)CCC3
Result: F

Problem: Note, next up: Cn1cc(C2=C(N3CCOCC3)C(=O)NC2=O)c2ccccc21
Result: F

Problem: Note, next up: O=c1ccc2nc(-c3ccccn3)nn(-c3ccccc3)c-2c1
Result: F

Numbers sourced from PubChem BioAssay (NCI).
